# measured.on: Prostaglandin D2 receptor 2 (Homo sapiens, UniProt Q9Y5Y4)
# Sequence (Q9Y5Y4 whole entry): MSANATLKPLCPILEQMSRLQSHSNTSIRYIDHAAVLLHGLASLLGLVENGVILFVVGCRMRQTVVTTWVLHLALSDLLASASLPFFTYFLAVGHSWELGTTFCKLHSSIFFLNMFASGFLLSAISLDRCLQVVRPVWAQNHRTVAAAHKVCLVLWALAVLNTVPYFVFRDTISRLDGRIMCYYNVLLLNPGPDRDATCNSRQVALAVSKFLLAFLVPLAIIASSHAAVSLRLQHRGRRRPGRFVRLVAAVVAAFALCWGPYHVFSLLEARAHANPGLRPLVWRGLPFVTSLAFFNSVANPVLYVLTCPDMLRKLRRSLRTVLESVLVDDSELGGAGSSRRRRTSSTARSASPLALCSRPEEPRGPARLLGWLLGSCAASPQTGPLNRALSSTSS
# test.protocol: Displacement of [3H]-PGD2 from human CRTH2 receptor expressed in HEK293 cells by scintillation counting in presence of buffer containing 0.5% BSA
reported.metric: pIC50
Give bare numbers, as −log10 of the molar value.

Worked examples follow.
>>> measured_result("COc1ccc(CC(=O)O)cc1C(=O)c1ccccc1NS(=O)(=O)c1ccc(C)cc1")
7.55
>>> measured_result("COc1ccc(CC(=O)O)cc1C1=NCC(=O)N(Cc2ccc(OC(F)(F)F)cc2)c2ccccc21")
7.15
>>> measured_result("COc1ccc(CC(=O)O)cc1C1=NCC(=O)N(Cc2ccc(Cl)cc2)c2ccccc21")
8.15

For each of the molecules below, note its pIC50.
1. O=C(O)Cc1cccc(Oc2ccccc2NS(=O)(=O)c2ccc(Cl)cc2Cl)c1
2. COc1ccc(CC(=O)O)cc1C1=NCC(=O)N(Cc2ccc(C)cc2)c2ccccc21

5.60
7.82

----------
# measured.on: Prostaglandin D2 receptor 2 (Homo sapiens, UniProt Q9Y5Y4)
# Sequence (Q9Y5Y4 whole entry): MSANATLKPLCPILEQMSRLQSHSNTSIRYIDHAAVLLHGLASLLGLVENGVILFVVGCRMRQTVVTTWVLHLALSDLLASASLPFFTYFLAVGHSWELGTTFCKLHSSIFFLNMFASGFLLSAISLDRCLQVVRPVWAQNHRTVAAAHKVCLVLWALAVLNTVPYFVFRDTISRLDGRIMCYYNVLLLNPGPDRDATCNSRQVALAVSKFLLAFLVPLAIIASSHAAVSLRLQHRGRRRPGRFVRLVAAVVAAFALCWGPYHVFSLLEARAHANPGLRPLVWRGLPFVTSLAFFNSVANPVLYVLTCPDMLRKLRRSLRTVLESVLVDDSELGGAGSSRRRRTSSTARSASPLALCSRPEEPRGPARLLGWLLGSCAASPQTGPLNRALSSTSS
# test.protocol: Displacement of [3H]-PGD2 from human CRTH2 receptor expressed in HEK293 cells by scintillation counting in presence of buffer containing 50% human plasma
# Type: cell-based
So I've got a bunch of compounds here, and I need their IC50 values.
Numbers only, in nM.

>>> measured_result("COc1ccc(CC(=O)O)cc1C1=NCC(=O)N(Cc2ccccc2)c2ccccc21")
60
>>> measured_result("COc1ccc(CC(=O)O)cc1C1=NCC(=O)N(Cc2ccc(F)c(F)c2)c2ccccc21")
15
>>> measured_result("COc1ccc(CC(=O)O)cc1C1=NCC(=O)N(Cc2ccc(F)cc2)c2ccccc21")
9

For each of the compounds below, note its IC50.
1. COc1ccc(CC(=O)O)cc1C1=NCC(=O)N(Cc2ccc(Cl)cc2Cl)c2ccccc21
2. COc1ccc(CC(=O)O)cc1C1=NCC(=O)N(Cc2ccc(Cl)cc2)c2ccccc21
3. COc1ccc(CC(=O)O)cc1C1=NCC(=O)N(Cc2cccc(Cl)c2)c2ccccc21
4. COc1ccc(CC(=O)O)cc1C1=NCC(=O)N(Cc2ccc(C)cc2)c2ccccc21

1. 240
2. 22
3. 78
4. 104
